Listing of entries alongside the reported IC50.
Test system: COS Cell
Test summary: COS Cell IC50 (Cell-Based Assay)

Name the reported IC50 value associated with the compound CC(C)(C)OC(=O)N1CCN(C(=O)CN2CCC(CC(=O)N3CCC([C@H]4c5ncc(Br)cc5CCc5cc(Cl)cc(Br)c54)CC3)CC2)CC1 [Compound 8.0]
22 nM

Similarly, O=C(CN1CCC(CC(=O)N2CCC([C@H]3c4ncc(Br)cc4CCc4cc(Cl)cc(Br)c43)CC2)CC1)N[C@@H]1O[C@H](CO)[C@H](O)[C@H](O)[C@H]1O [Compound 6.0] ?
300 nM

Similarly, O=C(CN1CCC(CC(=O)N2CCC([C@H]3c4ncc(Br)cc4CCc4cc(Cl)cc(Br)c43)CC2)CC1)NCc1ccccc1 [Compound 5.0] ?
840 nM

Similarly, NC(=O)CN1CCC(CC(=O)N2CCC([C@H]3c4ncc(Br)cc4CCc4cc(Cl)cc(Br)c43)CC2)CC1 [Compound 2.0] ?
6 nM

Here is another compound to look at.
Name the reported IC50 value associated with the compound O=C(CC1CCN(CC(=O)N2CCNCC2)CC1)N1CCC([C@H]2c3ncc(Br)cc3CCc3cc(Cl)cc(Br)c32)CC1 [Compound 9.0]
120 nM

----------
Listing of entries alongside the reported pIC50.
System: farnesyl protein transferase (Homo sapiens, UniProt P49354+P49356)
Test summary: FPT IC50, inhibition of farnesyl protein transferase (K-ras)
Assay type: biochemical
# reply with the number alone; pIC50 is -log10 of concentration in mol/L

Name the reported pIC50 value associated with the compound CC(C)(C)OC(=O)N1CCN(C(=O)CN2CCC(CC(=O)N3CCC([C@H]4c5ncc(Br)cc5CCc5cc(Cl)cc(Br)c54)CC3)CC2)CC1 [Compound 8.0]
7.38

Here is another compound to look at.
Name the reported pIC50 value associated with the compound O=C(CC1CCN(CC(=O)N2CCNCC2)CC1)N1CCC([C@H]2c3ncc(Br)cc3CCc3cc(Cl)cc(Br)c32)CC1 [Compound 9.0]
7.77

----------
Listing of entries alongside the reported IC50.
System: farnesyl protein transferase (Homo sapiens, UniProt P49354+P49356)
Test summary: FPT IC50, inhibition of farnesyl protein transferase, in vitro enzyme assay (H-ras)
Format: biochemical
Give the value, in units of nM, as a plain number.

Illustrative cases are given below, each with its answer.
Name the reported IC50 value associated with the molecule O=C(CC1CCN(CC(=O)N2CCc3ccccc32)CC1)N1CCC([C@H]2c3ncc(Br)cc3CCc3cc(Cl)cc(Br)c32)CC1 [Compound 10.0]
5.4

Similarly, NC(=O)CN1CCC(CC(=O)N2CCC([C@H]3c4ncc(Br)cc4CCc4cc(Cl)cc(Br)c43)CC2)CC1 [Compound 2.0] ?
1.8

Similarly, CC(C)(C)OC(=O)N1CCN(C(=O)CN2CCC(CC(=O)N3CCC([C@H]4c5ncc(Br)cc5CCc5cc(Cl)cc(Br)c54)CC3)CC2)CC1 [Compound 8.0] ?
18

Similarly, O=C(CC1CCN(CC(=O)N2CCNCC2)CC1)N1CCC([C@H]2c3ncc(Br)cc3CCc3cc(Cl)cc(Br)c32)CC1 [Compound 9.0] ?
4.3

Similarly, CON(C)C(=O)CN1CCC(CC(=O)N2CCC([C@H]3c4ncc(Br)cc4CCc4cc(Cl)cc(Br)c43)CC2)CC1 [Compound 3.0] ?
3.9

Similarly, O=C(CN1CCC(CC(=O)N2CCC([C@H]3c4ncc(Br)cc4CCc4cc(Cl)cc(Br)c43)CC2)CC1)NCc1ccccc1 [Compound 5.0] ?
16

Similarly, O=C(CC1CCN(CC(O)CO)CC1)N1CCC([C@H]2c3ncc(Br)cc3CCc3cc(Cl)cc(Br)c32)CC1 (some centres unmarked) [Compound 20.0] ?
2

Similarly, CCN(CC)C(=O)CN1CCC(CC(=O)N2CCC([C@H]3c4ncc(Br)cc4CCc4cc(Cl)cc(Br)c43)CC2)CC1 [Compound 4.0] ?
4.3

Similarly, O=C(CN1CCC(CC(=O)N2CCC([C@H]3c4ncc(Br)cc4CCc4cc(Cl)cc(Br)c43)CC2)CC1)N[C@@H]1O[C@H](CO)[C@H](O)[C@H](O)[C@H]1O [Compound 6.0] ?
3.4

Similarly, CC(C)(C)OC(=O)CN1CCC(CC(=O)N2CCC([C@H]3c4ncc(Br)cc4CCc4cc(Cl)cc(Br)c43)CC2)CC1 [Compound 11.0] ?
28

New cases:
Name the reported IC50 value associated with the molecule O=C(CC1CCN(CC(=O)N2CCOCC2)CC1)N1CCC([C@H]2c3ncc(Br)cc3CCc3cc(Cl)cc(Br)c32)CC1 [Compound 7.0]
5

----------
Tested on: COS Cell
Test summary: COS Cell IC50 (Cell-Based Assay)
Listing of entries alongside the reported IC50.
Give the value, in units of µM, as a plain number.

Illustrative cases are given below, each with its answer.
Name the reported IC50 value associated with the molecule O=C(CC1CCN(CC(=O)N2CCOCC2)CC1)N1CCC([C@H]2c3ncc(Br)cc3CCc3cc(Cl)cc(Br)c32)CC1
0.025

Similarly, O=C(CC1CCN(CC(=O)N2CCc3ccccc32)CC1)N1CCC([C@H]2c3ncc(Br)cc3CCc3cc(Cl)cc(Br)c32)CC1 ?
0.1

Similarly, CCN(CC)C(=O)CN1CCC(CC(=O)N2CCC([C@H]3c4ncc(Br)cc4CCc4cc(Cl)cc(Br)c43)CC2)CC1 ?
0.04

Here is another molecule to look at.
Name the reported IC50 value associated with the molecule CON(C)C(=O)CN1CCC(CC(=O)N2CCC([C@H]3c4ncc(Br)cc4CCc4cc(Cl)cc(Br)c43)CC2)CC1
0.02

----------
System: farnesyl protein transferase (Homo sapiens, UniProt P49354+P49356)
Test summary: FPT IC50, inhibition of farnesyl protein transferase (K-ras)
Format: biochemical
Description: FPT IC50 (inhibition of farnesyl protein transferase, in vitro enzyme assay) and COS Cell IC50 (Cell-Based Assay) were determined following the assay procedures described in WO 95110516, published Apr. 20, 1995. GGPT IC50 (inhibition of geranylgeranyl protein transferase, in vitro enzyme assay), Cell Mat Assay, and anti-tumor activity (in vivo anti-tumor studies) could be determined by the assay procedures described in WO 95/10516. […]
Measured parameter: pIC50
# reply with the number alone; pIC50 is -log10 of concentration in mol/L

Illustrative cases are given below, each with its answer.
Name the reported pIC50 value associated with the molecule O=C(CN1CCC(CC(=O)N2CCC([C@H]3c4ncc(Br)cc4CCc4cc(Cl)cc(Br)c43)CC2)CC1)NCc1ccccc1
7.28

Similarly, O=C(CC1CCN(CC(=O)N2CCOCC2)CC1)N1CCC([C@H]2c3ncc(Br)cc3CCc3cc(Cl)cc(Br)c32)CC1 ?
7.70

Here is another molecule to look at.
Name the reported pIC50 value associated with the molecule NC(=O)CN1CCC(CC(=O)N2CCC([C@H]3c4ncc(Br)cc4CCc4cc(Cl)cc(Br)c43)CC2)CC1
8.07
